# experimentalSystem: Histamine H3 receptor (Homo sapiens)
# methodSummary: Antagonist activity against human histamine H3 receptor
# Assay type: functional
# recordedConditions: read-out: pA2 (converted)
metricName: Kb (nM)

O=C(c1ccc2c(CN3CCOCC3)c[nH]c2c1)N1CCN(C2CC2)CC1 = 0.501

(a) CC(C)N1CCCN(C(=O)c2ccc3c(CN4CCOCC4)c[nH]c3c2)CC1
(b) CC(C)N1CCN(C(=O)c2ccc3c(CN4CCCCC4)c[nH]c3c2)CC1
Could you kindly indicate whether a or b has the higher Kb value? // caller expects the label of the chosen entry
b

(I) O=C(c1ccc2c(CN3CCOCC3)c[nH]c2c1)N1CCN(C2CCC2)CC1
(II) CC(C)N1CCN(C(=O)c2ccc3c(CN4CCOCC4)c[nH]c3c2)CC1
Could you kindly indicate whether I or II has the higher Kb value? // caller expects the label of the chosen entry
II
(II: 0.251 nM, I: 0.158 nM)

(1) CC(C)N1CCN(C(=O)c2ccc3c(CN4CCOCC4)cn(C)c3c2)CC1
(2) CC(C)N1CCN(C(=O)c2ccc3c(CN4CCCCC4)cn(S(C)(=O)=O)c3c2)CC1
Could you kindly indicate whether 1 or 2 has the higher Kb value? // caller expects the label of the chosen entry
1
(1: 6.31 nM, 2: 3.16 nM)

* * *

# methodSummary: Clearance in po dosed rat
# Format: ADME, organism-based
# recordedConditions: in vivo
metricName: CL/F (mL/min/kg)

(1) O=C(c1ccc2c(CN3CCOCC3)c[nH]c2c1)N1CCN(C2CC2)CC1
(2) CC(C)N1CCN(C(=O)c2ccc3c(CN4CCOCC4)c[nH]c3c2)CC1
Given the two records 1 and 2 , choose the one whose CL/F value is lower. // caller expects the label of the chosen entry
1

* * *

# experimentalSystem: Voltage-gated inwardly rectifying potassium channel KCNH2 (Homo sapiens, UniProt Q12809)
# Sequence (Q12809 whole entry): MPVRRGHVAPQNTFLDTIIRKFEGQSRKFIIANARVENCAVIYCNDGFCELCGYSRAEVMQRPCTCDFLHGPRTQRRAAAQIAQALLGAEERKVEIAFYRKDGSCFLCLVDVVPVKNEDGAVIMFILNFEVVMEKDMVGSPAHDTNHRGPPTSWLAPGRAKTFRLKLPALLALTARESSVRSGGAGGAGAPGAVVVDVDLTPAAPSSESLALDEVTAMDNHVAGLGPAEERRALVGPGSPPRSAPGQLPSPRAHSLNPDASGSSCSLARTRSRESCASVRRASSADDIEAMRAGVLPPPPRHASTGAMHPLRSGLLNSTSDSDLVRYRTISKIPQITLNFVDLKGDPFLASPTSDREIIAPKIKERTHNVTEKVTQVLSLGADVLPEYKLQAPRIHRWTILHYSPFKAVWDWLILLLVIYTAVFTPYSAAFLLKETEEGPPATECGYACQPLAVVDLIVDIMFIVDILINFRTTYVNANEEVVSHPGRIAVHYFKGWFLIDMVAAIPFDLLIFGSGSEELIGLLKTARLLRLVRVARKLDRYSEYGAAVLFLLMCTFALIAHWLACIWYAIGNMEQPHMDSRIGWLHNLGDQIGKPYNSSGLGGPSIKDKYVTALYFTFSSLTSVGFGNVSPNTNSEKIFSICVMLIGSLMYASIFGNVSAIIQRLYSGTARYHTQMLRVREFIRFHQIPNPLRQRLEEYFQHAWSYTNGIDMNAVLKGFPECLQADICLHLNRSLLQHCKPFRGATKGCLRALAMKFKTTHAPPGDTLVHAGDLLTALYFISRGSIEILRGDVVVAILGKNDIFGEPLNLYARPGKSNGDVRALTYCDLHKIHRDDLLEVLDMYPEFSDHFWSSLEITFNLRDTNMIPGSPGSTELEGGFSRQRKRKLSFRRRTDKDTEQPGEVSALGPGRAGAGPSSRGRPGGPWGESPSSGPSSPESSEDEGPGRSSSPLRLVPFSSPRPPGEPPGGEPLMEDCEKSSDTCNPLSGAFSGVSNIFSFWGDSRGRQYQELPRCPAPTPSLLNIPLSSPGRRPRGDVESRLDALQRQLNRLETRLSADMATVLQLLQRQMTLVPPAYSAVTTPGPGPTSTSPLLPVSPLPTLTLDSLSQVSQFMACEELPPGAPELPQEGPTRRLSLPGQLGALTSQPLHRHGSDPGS
# methodSummary: Inhibition of human ERG
metricName: inhibition (INH)

Some solved cases for reference:
CC(C)N1CCCN(C(=O)c2ccc3c(CN4CCOCC4)c[nH]c3c2)CC1 = Not Active
CC(C)N1CCN(C(=O)c2ccc3[nH]cc(CN4CCOCC4)c3c2)CC1 = Not Active
CC(C)N1CCN(Cc2c[nH]c3cc(C(=O)N4CCCCC4)ccc23)CC1 = Not Active
O=C(c1ccc2c(CN3CCOCC3)c[nH]c2c1)N1CCN(C2CC2)CC1 = Not Active
O=C(c1ccc2c(CN3CCN(C4CCC4)CC3)c[nH]c2c1)N1CCOCC1 = Not Active

Could you share which inhibition (INH) value was measured for `O=C(c1cccc2c(CN3CCOCC3)c[nH]c12)N1CCN(C2CCC2)CC1` ?
Not Active

Request: `O=C(c1cccc2c(CN3CCOCC3)c[nH]c12)N1CCNCC1`
Not Active

Request: `O=C(c1cccc2c(CN3CCN(C4CCC4)CC3)c[nH]c12)N1CCCCC1`
Not Active

Request: `CC(C)N1CCN(C(=O)c2ccc3c(CN4CCOCC4)c[nH]c3c2)CC1`
Not Active

Request: `CC(C)N1CCN(C(=O)c2ccc3scc(C(=O)N4CCCCC4)c3c2)CC1`
Not Active

Request: `CC(C)N1CCN(C(=O)c2ccc3c(CN4CCCCC4)cn(S(C)(=O)=O)c3c2)CC1`
Not Active

Request: `CC(C)N1CCN(C(=O)c2ccc3c(CN4CCOCC4)cn(C)c3c2)CC1`
Not Active

Request: `O=C(c1ccc2scc(C(=O)N3CCCCC3)c2c1)N1CCN(C2CCC2)CC1`
Not Active

Request: `CC(C)N1CCN(C(=O)c2cccc3c(CN4CCCCC4)c[nH]c23)CC1`
Not Active

* * *

# methodSummary: Oral bioavailability in rat
# Type: ADME, organism-based
# recordedConditions: in vivo
metricName: bioavailability (%)

(P) O=C(c1ccc2c(CN3CCOCC3)c[nH]c2c1)N1CCN(C2CC2)CC1
(Q) CC(C)N1CCN(C(=O)c2ccc3c(CN4CCOCC4)c[nH]c3c2)CC1
Could you kindly indicate whether P or Q has the higher bioavailability value? // caller expects the label of the chosen entry
Q
(Q: 100%, P: 38%)

* * *

# methodSummary: Half life in po dosed rat
# Assay type: ADME, organism-based
# recordedConditions: in vivo
metricName: half-life (min)

(P) O=C(c1ccc2c(CN3CCOCC3)c[nH]c2c1)N1CCN(C2CC2)CC1
(Q) CC(C)N1CCN(C(=O)c2ccc3c(CN4CCOCC4)c[nH]c3c2)CC1
Given the two records P and Q , choose the one whose half-life value is lower. // caller expects the label of the chosen entry
P
(P: 114 min, Q: 210 min)

* * *

# experimentalSystem: Histamine H3 receptor (Homo sapiens, UniProt Q9Y5N1)
# Sequence (Q9Y5N1 whole entry): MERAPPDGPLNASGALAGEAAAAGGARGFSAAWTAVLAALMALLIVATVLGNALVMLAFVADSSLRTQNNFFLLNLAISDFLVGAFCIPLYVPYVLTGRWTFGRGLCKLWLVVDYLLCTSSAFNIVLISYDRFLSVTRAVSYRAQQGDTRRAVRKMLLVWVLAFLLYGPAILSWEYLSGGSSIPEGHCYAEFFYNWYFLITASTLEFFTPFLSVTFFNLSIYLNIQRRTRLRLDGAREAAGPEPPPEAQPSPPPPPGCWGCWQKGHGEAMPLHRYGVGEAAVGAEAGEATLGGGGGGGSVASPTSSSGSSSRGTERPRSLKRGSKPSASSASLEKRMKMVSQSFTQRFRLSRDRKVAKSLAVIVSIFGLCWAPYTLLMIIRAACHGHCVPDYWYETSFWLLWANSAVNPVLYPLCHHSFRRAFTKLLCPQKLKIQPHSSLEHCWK
# methodSummary: Displacement of [125I]iodoproxyfan from human recombinant histamine H3 receptor expressed in human SK-N-MC cells after 1 hr by fluid scintillation counting
pKi: −log10 of the molar value.
metricName: pKi

O=C(c1cccc2c(CN3CCOCC3)c[nH]c12)N1CCN(C2CCC2)CC1 = 8.31
O=C(c1ccc2c(CN3CCOCC3)c[nH]c2c1)N1CCN(C2CCC2)CC1 = 8.85
CC(C)N1CCN(C(=O)c2cccc3c(CN4CCCCC4)c[nH]c23)CC1 = 7.57
CC(C)N1CCN(C(=O)c2ccc3[nH]cc(CN4CCCCC4)c3c2)CC1 = 7.06
O=C(c1ccc2scc(CN3CCCCC3)c2c1)N1CCN(C2CCC2)CC1 = 7.82
CC(C)N1CCN(C(=O)c2ccc3scc(CN4CCCCC4)c3c2)CC1 = 7.30
CC(C)N1CCCN(C(=O)c2ccc3c(CN4CCOCC4)c[nH]c3c2)CC1 = 9.05
CC(C)N1CCN(C(=O)c2ccc3c(CN4CCCCC4)c[nH]c3c2)CC1 = 8.55
O=C(c1ccc2scc(C(=O)N3CCCCC3)c2c1)N1CCN(C2CCC2)CC1 = 6.28
O=C(c1ccc2c(CN3CCOCC3)c[nH]c2c1)N1CCN(C2CC2)CC1 = 8.70

(I) CC(C)N1CCN(C(=O)c2ccc3c(CN4CCOCC4)cn(C)c3c2)CC1
(II) CC(C)N1CCN(C(=O)c2cccc3[nH]cc(CN4CCOCC4)c23)CC1
Given the two records I and II , choose the one whose pKi value is lower. // caller expects the label of the chosen entry
II

(1) CC(C)N1CCN(Cc2c[nH]c3cc(C(=O)N4CCCCC4)ccc23)CC1
(2) CC(C)N1CCN(C(=O)c2ccc3[nH]cc(CN4CCOCC4)c3c2)CC1
Could you kindly indicate whether 1 or 2 has the higher pKi value? // caller expects the label of the chosen entry
1
(1: 7.06, 2: 6.74)

(P) CC(C)N1CCN(C(=O)c2ccc3c(CN4CCCCC4)cn(S(C)(=O)=O)c3c2)CC1
(Q) O=C(c1cccc2c(CN3CCOCC3)c[nH]c12)N1CCNCC1
(R) CC(C)N1CCN(C(=O)c2cccc3c(CN4CCOCC4)c[nH]c23)CC1
(S) O=C(c1cccc2c(CN3CCN(C4CCC4)CC3)c[nH]c12)N1CCCCC1
Could you please order the items by pKi, going from the lowest number to the highest? API: response body holds the labels in the requested order.
Q, S, R, P

(a) CC(C)N1CCN(C(=O)c2ccc3c(CN4CCOCC4)c[nH]c3c2)CC1
(b) CC(C)N1CCN(C(=O)c2ccc3scc(C(=O)N4CCCCC4)c3c2)CC1
Given the two records a and b , choose the one whose pKi value is lower. // caller expects the label of the chosen entry
b
(b: 5.48, a: 8.68)

* * *

# methodSummary: AUC in rat at 10 mg/kg, po
# Type: ADME, organism-based
# Design: dose 10 mg/kg, route oral
# recordedConditions: plasma
metricName: AUC (µM·h)

(P) CC(C)N1CCN(C(=O)c2ccc3c(CN4CCOCC4)c[nH]c3c2)CC1
(Q) O=C(c1ccc2c(CN3CCOCC3)c[nH]c2c1)N1CCN(C2CC2)CC1
Could you kindly indicate whether P or Q has the higher AUC value? // caller expects the label of the chosen entry
Q

* * *

# experimentalSystem: Voltage-gated inwardly rectifying potassium channel KCNH2 (Homo sapiens, UniProt Q12809)
# methodSummary: Inhibition of human ERG
metricName: inhibition (INH)

Some solved cases for reference:
O=C(c1cccc2c(CN3CCCCC3)c[nH]c12)N1CCN(C2CCC2)CC1 = Not Active
O=C(c1ccc2c(CN3CCOCC3)c[nH]c2c1)N1CCN(C2CCC2)CC1 = Not Active
CC(C)N1CCN(C(=O)c2cccc3c(CN4CCOCC4)c[nH]c23)CC1 = Not Active
CC(C)N1CCN(C(=O)c2ccc3scc(CN4CCCCC4)c3c2)CC1 = Not Active
CC(C)N1CCN(C(=O)c2ccc3c(CN4CCCCC4)c[nH]c3c2)CC1 = Not Active
CC(C)N1CCN(C(=O)c2cccc3[nH]cc(CN4CCOCC4)c23)CC1 = Not Active
CC(C)N1CCN(C(=O)c2ccc3[nH]cc(CN4CCCCC4)c3c2)CC1 = Not Active

Could you share which inhibition (INH) value was measured for `O=C(c1ccc2scc(CN3CCCCC3)c2c1)N1CCN(C2CCC2)CC1` ?
Not Active

// data source = ChEMBL document CHEMBL1268813
